- PROTOCOL: in vitro
- Type: cell-based
- MEASUREMENT_SETUP: human
READOUT_KIND: CC50 at 72 h

stdin: // fetch CC50 at 72 h given entry N#Cc1c(O)nc(-c2cccc([N+](=O)[O-])c2)c([N+](=O)[O-])c1C(F)(F)F
stdout: > 700 µM

Hey, just so you know, these numbers are from patent US20190382346A1.
